# Percent Effect listing for each entry below
# experimental.system: Ubiquitin-activating enzyme e1, putative (Leishmania donovani (strain BPK282A1)) (UniProt E9BSI1)
# Sequence (whole entry): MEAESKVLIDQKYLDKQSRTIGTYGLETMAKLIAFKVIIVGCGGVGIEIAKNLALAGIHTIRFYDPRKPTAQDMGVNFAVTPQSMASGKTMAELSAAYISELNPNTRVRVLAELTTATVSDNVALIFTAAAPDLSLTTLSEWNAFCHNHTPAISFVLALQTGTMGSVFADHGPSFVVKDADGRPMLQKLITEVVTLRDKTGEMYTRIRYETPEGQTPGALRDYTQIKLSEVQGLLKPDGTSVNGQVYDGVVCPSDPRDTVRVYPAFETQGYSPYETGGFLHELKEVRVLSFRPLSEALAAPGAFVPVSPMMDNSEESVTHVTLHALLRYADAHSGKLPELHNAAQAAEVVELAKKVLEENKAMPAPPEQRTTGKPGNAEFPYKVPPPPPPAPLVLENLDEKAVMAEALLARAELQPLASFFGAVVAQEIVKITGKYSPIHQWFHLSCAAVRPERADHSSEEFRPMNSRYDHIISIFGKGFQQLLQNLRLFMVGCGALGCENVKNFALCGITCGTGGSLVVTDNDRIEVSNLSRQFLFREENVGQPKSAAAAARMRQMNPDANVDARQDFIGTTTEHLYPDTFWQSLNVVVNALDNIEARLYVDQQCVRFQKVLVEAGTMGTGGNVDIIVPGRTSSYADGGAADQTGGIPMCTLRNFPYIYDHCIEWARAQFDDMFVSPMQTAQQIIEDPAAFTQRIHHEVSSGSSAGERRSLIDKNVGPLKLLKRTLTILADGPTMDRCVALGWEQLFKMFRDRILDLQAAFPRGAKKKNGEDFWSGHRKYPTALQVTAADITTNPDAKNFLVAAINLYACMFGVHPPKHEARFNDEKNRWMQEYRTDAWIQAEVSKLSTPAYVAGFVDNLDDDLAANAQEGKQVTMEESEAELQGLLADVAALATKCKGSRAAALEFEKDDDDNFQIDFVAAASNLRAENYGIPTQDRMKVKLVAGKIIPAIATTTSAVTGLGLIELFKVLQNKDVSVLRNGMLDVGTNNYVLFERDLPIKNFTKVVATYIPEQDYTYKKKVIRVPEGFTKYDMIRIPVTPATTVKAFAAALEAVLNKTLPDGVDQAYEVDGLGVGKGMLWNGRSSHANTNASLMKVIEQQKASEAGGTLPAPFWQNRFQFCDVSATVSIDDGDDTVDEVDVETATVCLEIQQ
# assay.procedure: Leishmania donovani Ubiquitin Activating Enzyme (LdE1)
# Assay type: functional
# Set-up: scale not given: direction of the effect not stated beside the values
# test.settings: 30 µM
Entries with a potency or affinity are not part of this list.
experimental.readout: Percent Effect (%)

[[record]]
molecule = "Cn1ccc(CN2CCCC2c2ccc3c(c2)OCCCO3)cc1=O (centres undefined)"
endpoint_result = 7.69

[[record]]
molecule = "Cc1cnn(CCC(=O)N2CCN(c3nc(C)cs3)CC2)c1"
endpoint_result = 17.7

[[record]]
molecule = "COCCN1CCN(C(=O)C2CC=CC2)Cc2cccnc21"
endpoint_result = 8

[[record]]
molecule = "O=C(NCN1CCc2ccccc2C1)c1cnccn1"
endpoint_result = 2.7

[[record]]
molecule = "CCn1nnc2c1C(COC)CN(Cc1ccsc1)C2 (centres undefined)"
endpoint_result = 5.41

[[record]]
molecule = "CCc1nc(CN2CCCC(NCc3cc(C)no3)C2)no1 (centres undefined)"
endpoint_result = -28.6

[[record]]
molecule = "CCOc1ccc(S(=O)(=O)NC(=O)CCC2CCCO2)cc1 (centres undefined)"
endpoint_result = 13.5

[[record]]
molecule = "Cc1ccc(N2CC[C@H]3O[C@@H](C(=O)NCc4ccco4)CC[C@H]32)nn1"
endpoint_result = 11.7

[[record]]
molecule = "CCn1c(C)cc(C(=O)N2CCCC(n3nc(C)nc3C)C2)c1C (centres undefined)"
endpoint_result = 12.8

[[record]]
molecule = "CC(C)C(=O)NCC(=O)N(C)C1CCCN(CCc2ccccc2)C1 (centres undefined)"
endpoint_result = 10.8

[[record]]
molecule = "O=C(CSc1ccc(F)c(F)c1)NS(=O)(=O)c1ccc2c(c1)OCCO2"
endpoint_result = 2.56

[[record]]
molecule = "CC(C)c1nnc2n1CCN(C(=O)c1ccc(OCC(N)=O)cc1)C2"
endpoint_result = 18.2

[[record]]
molecule = "CCn1ccnc1CN1CCC(N(C)Cc2ncc(C)o2)C1 (centres undefined)"
endpoint_result = 13.3

[[record]]
molecule = "O=C(NCc1cc[nH]n1)NCC(c1ccc(F)cc1)N1CCOCC1 (centres undefined)"
endpoint_result = 23.1

